experiment: NCI Yeast Anticancer Drug Screen. Data for the rad50 strain (AID 155);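 note: 0% = growth of vehicle-only cultures of the same strain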; conditions: S. cerevisiae rad50 strain growth inhibition; at 50.0 µM unless noted
The panel holds about 79,000 compounds, 15% with a hit somewhere; the sample as a whole holds those more often. Active and inactive are the calls of the source. Cut-off read from the data, not from the text of the source: active = growth inhibition above about 70%; inactive = the rest.
Answer with one of the outcomes given here: active, inactive

Some solved entries appear below for comparison.
Query: So what was the verdict on CN(C)c1ccc(/C=C2\C[N+](C)(C)C/C(=C\c3ccc(N(C)C)cc3)C2=O)cc1 in this test?
Response: inactive

Query: So what was the verdict on O=C1CCCC/C1=C/C=C/c1ccccc1 in this test?
Response: inactive

Query: So what was the verdict on O=C1Cc2c(-c3ccc(Cl)cc3)cc(-c3ccccc3)nc2-c2ccccc2N1 in this test?
Response: inactive

Query: So what was the verdict on CCCCCCCCCCCCC(=O)N1CCOCC1 in this test?
Response: active

Query: So what was the verdict on COc1ccc2oc3cc(Cl)ccc3c(=O)c2c1 in this test?
Response: inactive

Now turn to the next compound.
Query: So what was the verdict on [N-]=[N+]=Nc1c2c(nc3ccccc13)CCCC2 in this test?
Response: inactive

---

Overview of reported growth inhibition across a group of molecules:
assay: NCI Yeast Anticancer Drug Screen. Data for the mec2-1 strain (AID 157); conditions: S. cerevisiae mec2-1 strain, hits give high values; at 50.0 µM unless noted
The panel holds about 79,000 compounds, 15% with a hit somewhere; the sample as a whole holds those more often.
Give a bare numeral; the unit % is implied.

As a guide, the following entries are already answered.
Query: For the molecule shown here, O=C(O)c1ccc(C(=O)NCCCN(CCCCN(CCCNC(=O)c2ccc(C(=O)O)c(O)c2O)C(=O)c2ccc(C(=O)O)c(O)c2O)C(=O)c2ccc(C(=O)O)c(O)c2O)c(O)c1O , give the reported growth inhibition.
Response: 16.1

Query: For the molecule shown here, c1ccc(CSCc2cnc[nH]2)cc1 , give the reported growth inhibition.
Response: 0.6

Query: For the molecule shown here, CC(C)(O)C(O)c1ccccc1 (stereo not given) , give the reported growth inhibition.
Response: 7

***
Query: For the molecule shown here, COc1cc(OC)c(C2SCC(=O)N2c2nnc(C(F)(F)F)s2)cc1OC (stereo not given) , give the reported growth inhibition.
Response: 13.8

Query: For the molecule shown here, COC(=O)Cc1cc(C)n(C)c(=O)c1CN1C(=O)c2ccccc2C1=O , give the reported growth inhibition.
Response: -10.9

Query: For the molecule shown here, CCCCCCc1cc2cc(-c3csc(CC#N)n3)c(=O)oc2cc1O , give the reported growth inhibition.
Response: 14.1

Query: For the molecule shown here, Cn1c2ccccc2c2c3c(ccc21)C(=O)N(c1ccccc1)C3=O , give the reported growth inhibition.
Response: -4.7

---

test: NCI Yeast Anticancer Drug Screen. Data for the sgs1 mgt1 strain (AID 161);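 note: 0% = growth of cultures given vehicle only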; settings: S. cerevisiae sgs1 mgt1 strain; at 50.0 µM unless noted
About 79,000 compounds went through this panel and 15% of them were active in at least one assay; those are over-represented in the sample as a whole. Active and inactive are the calls of the source. No stated cut-off is given here; in the data, active means growth inhibition above about 70%; inactive means the rest.
Answer with one of the outcomes given here: true (1) for active, false (0) for inactive

Query: So what was the verdict on Brc1cc(Br)cc(CN2CCOCC2)c1 in this test?
Response: false (0)

Query: So what was the verdict on O=C(Nc1cccc(I)c1)OCCCl in this test?
Response: true (1)

Query: So what was the verdict on O=C(c1ccccc1)c1ccc2ccccc2c1 in this test?
Response: false (0)

Query: So what was the verdict on O=c1[nH]n(Cc2ccccc2CCl)c2ccc([N+](=O)[O-])cc12 in this test?
Response: false (0)

Query: So what was the verdict on Cc1ccc(S(=O)(=O)N/N=C(\c2nc3ccc(Cl)cc3[nH]c2=O)C(O)c2cccc([N+](=O)[O-])c2)cc1 (stereo unspecified) in this test?
Response: false (0)

***
Query: So what was the verdict on CCCCS(=O)/C=C\S(=O)CCCC (stereo unspecified) in this test?
Response: false (0)

Query: So what was the verdict on O=C(O)/C(Cc1cn[nH]n1)=N\O in this test?
Response: false (0)

---

assay: NCI Yeast Anticancer Drug Screen. Data for the mec2-1 strain (AID 157); conditions: S. cerevisiae mec2-1 strain; at 50.0 µM unless noted
About 79,000 compounds went through this panel and 15% of them were active in at least one assay; those are over-represented in the sample as a whole. Activity calls are given as the source filed them. Rule as the data show it: active = growth inhibition above about 70%; inactive = the rest.
Answer with one of the outcomes given here: T = active, F = inactive

Some solved entries appear below for comparison.
Query: So what was the verdict on O=C1CCCC/C1=C/C=C/c1ccccc1 in this test?
Response: F

Query: So what was the verdict on CCCCCCCCC(O)C#CC(O)CCCCCCCC (stereo not drawn) in this test?
Response: F

Query: So what was the verdict on O=C1CN(Cc2ccc3c(c2)OCO3)NO1 in this test?
Response: F

Query: So what was the verdict on NC(=S)Nc1ccc(Br)cc1 in this test?
Response: F

***
Query: So what was the verdict on COc1ccccc1OC(=O)Nc1ccc(S(=O)(=O)NC2CCCCC2)cc1 in this test?
Response: F

Query: So what was the verdict on CCCCC(Sc1nn(C2OC(COC(=O)c3ccccc3)C(OC(=O)c3ccccc3)C2OC(=O)c2ccccc2)c(=O)[nH]c1=O)C(=O)OCC (stereo not drawn) in this test?
Response: F

Query: So what was the verdict on Cc1cc(O)cc(C)c1O in this test?
Response: F

Query: So what was the verdict on COc1cc(/C=C/c2ccc(N(C)C)cc2)oc(=O)c1 in this test?
Response: F

Query: So what was the verdict on CN1C(=O)/C(=C2\SC(=O)N(CN3CCOCC3)C2=O)c2ccccc21 in this test?
Response: F

Query: So what was the verdict on CCOC(=S)Nc1ccccc1[N+](=O)[O-] in this test?
Response: F

Query: So what was the verdict on CC(=O)c1ccc(O)c(/C=C2\CCOC2=O)c1 in this test?
Response: F

Query: So what was the verdict on CN(C)C(n1cc2c(c1)-c1ccc(Cl)cc1C(c1ccccc1F)=NC2)n1cc2c(c1)-c1ccc(Cl)cc1C(c1ccccc1F)=NC2 in this test?
Response: F

---

Assay: NCI Yeast Anticancer Drug Screen. Data for the rad50 strain (AID 155);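 note: 0% = growth of vehicle-only cultures of the same strain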
Conditions: S. cerevisiae rad50 strain growth inhibition, hits give high values; at 50.0 µM unless noted
Method: Growth inhibition of yeast strains with defined genetic alterations is measured as a screen for potential anti-cancer activity. Selected strains with alterations in DNA damage repair or cell cycle control were exposed to compounds and growth inhibition was measured relative to vehicle treated controls. The strain used in this assay is rad50
This is part of a sample that, as a whole, favours compounds with a hit. Of some 79,000 tested, about 15% had one in any assay.
Overview of reported growth inhibition across a group of compounds:
Give a bare numeral; the unit % is implied.

As a guide, the following entries are already answered.
Query: For the compound shown here, O=C(NCCCl)NC1CCCCCC1 , give the reported growth inhibition.
Response: -10.8

Query: For the compound shown here, CCCCC(CCCC)C(=O)O , give the reported growth inhibition.
Response: -22.3

Query: For the compound shown here, O=C(O)C1CCc2ccccc21 (stereo not given) , give the reported growth inhibition.
Response: -15.8

Query: For the compound shown here, COC(=O)c1cc2c(cc1/C=C/C=O)OCO2 , give the reported growth inhibition.
Response: -20

Query: For the compound shown here, CC(=O)Oc1ccc(CCC(=O)O)cc1 , give the reported growth inhibition.
Response: 18.8

***
Query: For the compound shown here, COc1c(OC(C)=O)c(OC(C)=O)cc2c1-c1ccc(SC)c(=O)cc1C(NC(C)=O)CC2 (stereo not given) , give the reported growth inhibition.
Response: 23.2

Query: For the compound shown here, COc1c2c(cc3c1C(CCCc1ccccc1)N(C)CC3)OCO2 (stereo not given) , give the reported growth inhibition.
Response: 22.4

Query: For the compound shown here, Clc1ccc(N=Nc2nc3ccccc3nc2N=Nc2ccc(Cl)cc2Cl)c(Cl)c1 , give the reported growth inhibition.
Response: -32.5

Query: For the compound shown here, O=C(O)c1cc(C(=O)C(=O)c2cc(C(=O)O)c(O)c3ccccc23)c2ccccc2c1O , give the reported growth inhibition.
Response: -31.7

Query: For the compound shown here, Cc1cc2c(C)nn(Cc3ccccc3)c2c(C(N)=O)c1C , give the reported growth inhibition.
Response: 9.85

Query: For the compound shown here, CCC(C)C(NC(=O)C1CSC(C)(C)N1C=O)C(=O)OC1CCCCC1 (stereo not given) , give the reported growth inhibition.
Response: 38.9

Query: For the compound shown here, O=C(NCCCCCSC(=O)c1ccccc1)c1ccccc1 , give the reported growth inhibition.
Response: -0.35

Query: For the compound shown here, Cn1nc2ccc3nccc(N4CCN(CCO)CC4)c3c2n1 , give the reported growth inhibition.
Response: -25.6
